Target: T1, P6-AA-12HGe-R
T1 chain: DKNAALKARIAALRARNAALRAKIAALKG
Assay: two-hybrid library CCmax;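 note: natural log of median RNA to DNA barcode read ratio; higher means stronger binding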
Details: mean of both orientations
Recorded interaction score, one value per entry.
Reply with the value as a number alone.

>>> df
                                     binder       readoutlabel  recordedmeasurement
0  DENAALEARIAALRARNAALRAEIAALEG [P5-AA-12HGe-R]  interaction score                -1.36
1  DENAALEAWIAALWAWNAALWAEIAALEG [P5-AA-12HGe-W]  interaction score                -1.34
2  DENAALEAHIAALHAHNAALHAEIAALEG [P5-AA-12HGe-H]  interaction score                -1.38

Now for another entry.
query: interaction score for DENAALEAYIAALYAYNAALYAEIAALEG [P5-AA-12HGe-Y] ?
result: -0.752
